Entry source: ChEMBL document CHEMBL3774309

Here the recorded log10 EC50 is given for each entry.
- Tested on: Nuclear receptor ROR-gamma (Mus musculus, UniProt P51450)
- Sequence (P51450 whole entry, the tested form may be a part): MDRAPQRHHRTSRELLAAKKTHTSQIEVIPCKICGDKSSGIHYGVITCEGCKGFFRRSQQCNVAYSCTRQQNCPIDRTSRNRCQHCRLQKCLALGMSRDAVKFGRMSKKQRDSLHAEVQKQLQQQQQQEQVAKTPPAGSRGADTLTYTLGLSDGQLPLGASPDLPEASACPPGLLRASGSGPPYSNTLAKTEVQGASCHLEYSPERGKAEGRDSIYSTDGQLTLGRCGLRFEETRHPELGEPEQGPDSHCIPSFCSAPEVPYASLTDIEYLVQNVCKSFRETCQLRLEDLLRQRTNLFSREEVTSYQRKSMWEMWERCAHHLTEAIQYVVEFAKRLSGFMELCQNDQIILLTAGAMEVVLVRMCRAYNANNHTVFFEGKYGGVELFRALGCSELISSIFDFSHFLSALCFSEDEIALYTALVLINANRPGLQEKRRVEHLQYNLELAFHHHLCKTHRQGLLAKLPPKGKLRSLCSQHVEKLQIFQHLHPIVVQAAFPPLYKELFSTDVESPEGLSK
- Protocol details: Inhibition of mouse RORgamma ligand binding domain (Isoleucine 251 to Lysine 516) expressed in CHOK1 cells incubated for 2 days by Gal4 luciferase reporter gene assay
Assay readout: log10 EC50 (log10 of the value in µM)

Molecule	Numeric readout
Cc1ccc(NC(=O)CCc2nnc(CCC3CCCCC3)n2C2CC2(F)F)c(C)c1 (stereo not given)	-0.30
Cc1ccc(NC(=O)CCc2nnc(CCC3CCCCC3)n2C2CCC2)c(C)c1	0.26
CCn1c(CCC(=O)Nc2cc(C)cc(C)c2)nnc1CCC1CCCCC1	0.49
CCn1c(CCC(=O)Nc2cccc3ccccc23)nnc1C1Cc2ccccc2C1	-0.40
CCn1c(SCC(=O)Nc2cccc3ccccc23)nnc1C1Cc2ccccc2C1	-0.15
CCn1c(C(C)CC(=O)Nc2cccc3ccccc23)nnc1C1Cc2ccccc2C1 (racemic)	0.04
CCn1c(CCC(=O)Nc2cccc3ccccc23)nnc1CCC1CCCCC1	-0.52
CCn1c(CCC(=O)Nc2cccc(Cl)c2C)nnc1CCC1CCCCC1	-0.19
CCn1c(CCC(=O)Nc2cccc3ccccc23)nnc1C1CCCCC1	0.65
Cc1ccc(NC(=O)CCc2nnc([C@H]3C[C@H](CC(C)C)C3)n2C2CC2)c(C)c1	-1.28

###

Below are EC50 values measured for Nuclear receptor ROR-gamma (Homo sapiens).
Assay readout: EC50 (nM)

Molecule	Assay readout	Readout unit	Bound operator	Numeric readout
CCn1c(CCC(=O)Nc2cccc3ccccc23)nnc1CC1CCCCC1	EC50	nM	=	14000
CCn1c(CCC(=O)Nc2cccc3ccccc23)nnc1CCC(C)C	EC50	nM	=	13000
Cc1ccc(NC(=O)[C@H]2CN(C)CC[C@@H]2c2nnc([C@H]3C[C@@H](CC(C)C)C3)n2C2CC2)c(C)c1 (racemic)	EC50	nM	=	230
Cc1ccc(NC(=O)CCc2nnc(-c3cc(CC(C)C)on3)n2C2CC2)c(C)c1	EC50	nM	=	450
CCn1c(C(O)CC(=O)Nc2cccc3ccccc23)nnc1C1Cc2ccccc2C1 (racemic)	EC50	nM	>	20000
Cc1ccc(NC(=O)[C@H]2C[C@@H](O)C[C@@H]2c2nnc([C@H]3C[C@@H](CC(C)C)C3)n2C2CC2)c(C)c1	EC50	nM	=	98
CCn1c(CCC(=O)Nc2cccc(Cl)c2C)nnc1CCC1CCCCC1	EC50	nM	=	960
CCn1c(OCC(=O)Nc2cccc3ccccc23)nnc1C1Cc2ccccc2C1	EC50	nM	>	20000
Cc1ccc(NC(=O)CCc2nnc(-c3ccc(CC(C)C)cc3)n2C2CC2)c(C)c1	EC50	nM	=	1800
CCn1c(CCC(=O)Nc2cc(C)cc(C)c2)nnc1CCC1CCCCC1	EC50	nM	=	2900
CCn1c(CCC(=O)Nc2cccc3ccccc23)nnc1C1Cc2ccccc2C1	EC50	nM	=	1000
CCn1c(CC(C)C(=O)Nc2cccc3ccccc23)nnc1C1Cc2ccccc2C1 (racemic)	EC50	nM	=	1300
CCn1c(CCC(=O)Nc2ccc(C)cc2C)nnc1CCC1CCCCC1	EC50	nM	=	900
CCn1c(CCC(=O)Nc2cccc3ccccc23)nnc1CCC1CCCCC1	EC50	nM	=	820
CCC(C)CCc1nnc(CCC(=O)Nc2ccc(C)cc2C)n1C1CC1 (racemic)	EC50	nM	=	3900
CCn1c(SCC(=O)Nc2cccc3ccccc23)nnc1C1Cc2ccccc2C1	EC50	nM	=	1700
Cc1ccc(NC(=O)CCc2nnc(CCCC(C)(C)C)n2C2CC2)c(C)c1	EC50	nM	=	2800
CCn1c(CCC(=O)Nc2cccc3ccccc23)nnc1CCc1ccccc1	EC50	nM	=	2500
Cc1ccc(NC(=O)CCc2nnc(CCC3CCCCC3)n2C2CC2(F)F)c(C)c1 (stereo not given)	EC50	nM	=	920
CCn1c(CCC(=O)Nc2cccc3ccccc23)nnc1C1CCCCC1	EC50	nM	>	20000

###

Reported EC50 values, UniProtKB P51449.

Compound	Tested on	EC50
Cc1ccc(NC(=O)CCc2nnc([C@H]3C[C@H](CC(C)C)C3)n2C2CC2)c(C)c1	UniProtKB P51449	400 nM
CCn1c(C(C)CC(=O)Nc2cccc3ccccc23)nnc1C1Cc2ccccc2C1 (racemic)	UniProtKB P51449	1700 nM
Cc1ccc(NC(=O)CCc2nnc(CCCC(C)C)n2C2CC2)c(C)c1	UniProtKB P51449	1700 nM
Cc1ccc(NC(=O)CCc2nnc([C@H]3C[C@@H](CC(C)C)C3)n2C2CC2)c(C)c1	UniProtKB P51449	140 nM
Cc1ccc(NC(=O)CCc2nnc(CCC3CCCCC3)n2C2CCC2)c(C)c1	UniProtKB P51449	9500 nM
Cc1ccc(NC(=O)CCc2nnc(CCC3CCCCC3)n2C2CC2)c(C)c1	UniProtKB P51449	980 nM
CCn1c(CCC(=O)Nc2cccc3ccccc23)nnc1CCC(C)(C)C	UniProtKB P51449	6700 nM

###

- Tested on: Oxysterols receptor LXR-alpha (Mus musculus)
- Sequence (Q9Z0Y9 whole entry): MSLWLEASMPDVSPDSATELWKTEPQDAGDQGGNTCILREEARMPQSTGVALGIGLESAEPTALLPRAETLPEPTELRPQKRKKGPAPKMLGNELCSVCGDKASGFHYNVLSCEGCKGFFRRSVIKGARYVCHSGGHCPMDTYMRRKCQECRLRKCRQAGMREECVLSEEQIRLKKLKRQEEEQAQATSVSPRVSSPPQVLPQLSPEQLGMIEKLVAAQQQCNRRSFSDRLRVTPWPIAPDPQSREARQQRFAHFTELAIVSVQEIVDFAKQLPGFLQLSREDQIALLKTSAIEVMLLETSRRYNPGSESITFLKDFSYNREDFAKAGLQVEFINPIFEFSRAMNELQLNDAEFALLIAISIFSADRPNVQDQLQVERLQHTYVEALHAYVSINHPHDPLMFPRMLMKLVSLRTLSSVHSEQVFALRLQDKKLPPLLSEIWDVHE
- Protocol details: Inhibition of mouse LXRalpha
pEC50: −log10 of the molar value.

Chemical structure	pEC50
CC(=O)N1C[C@H](C(=O)Nc2ccc(C)cc2C)[C@@H](c2nnc([C@H]3C[C@@H](CC(C)C)C3)n2C2CC2)C1	< 4.70

###

- Tested on: Retinoic acid receptor beta (Homo sapiens, UniProt P10826)
- Sequence (P10826 whole entry): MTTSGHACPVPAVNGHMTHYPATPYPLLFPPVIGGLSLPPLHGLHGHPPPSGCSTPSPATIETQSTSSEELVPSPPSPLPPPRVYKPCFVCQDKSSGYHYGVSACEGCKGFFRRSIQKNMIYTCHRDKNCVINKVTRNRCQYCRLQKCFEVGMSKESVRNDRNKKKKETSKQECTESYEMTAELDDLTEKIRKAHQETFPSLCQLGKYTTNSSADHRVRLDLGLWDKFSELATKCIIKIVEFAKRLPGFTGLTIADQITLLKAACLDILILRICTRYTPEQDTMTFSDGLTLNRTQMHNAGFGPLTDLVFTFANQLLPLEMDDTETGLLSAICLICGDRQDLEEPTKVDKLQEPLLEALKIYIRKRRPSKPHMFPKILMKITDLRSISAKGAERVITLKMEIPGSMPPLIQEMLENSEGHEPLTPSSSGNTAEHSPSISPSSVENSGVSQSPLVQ
- Protocol details: Inhibition of human RARbeta

Chemical structure	EC50
CC(=O)N1C[C@H](C(=O)Nc2ccc(C)cc2C)[C@@H](c2nnc([C@H]3C[C@@H](CC(C)C)C3)n2C2CC2)C1	> 20 µM

###

- Tested on: Nuclear receptor ROR-alpha (Homo sapiens)
- Sequence (P35398 whole entry): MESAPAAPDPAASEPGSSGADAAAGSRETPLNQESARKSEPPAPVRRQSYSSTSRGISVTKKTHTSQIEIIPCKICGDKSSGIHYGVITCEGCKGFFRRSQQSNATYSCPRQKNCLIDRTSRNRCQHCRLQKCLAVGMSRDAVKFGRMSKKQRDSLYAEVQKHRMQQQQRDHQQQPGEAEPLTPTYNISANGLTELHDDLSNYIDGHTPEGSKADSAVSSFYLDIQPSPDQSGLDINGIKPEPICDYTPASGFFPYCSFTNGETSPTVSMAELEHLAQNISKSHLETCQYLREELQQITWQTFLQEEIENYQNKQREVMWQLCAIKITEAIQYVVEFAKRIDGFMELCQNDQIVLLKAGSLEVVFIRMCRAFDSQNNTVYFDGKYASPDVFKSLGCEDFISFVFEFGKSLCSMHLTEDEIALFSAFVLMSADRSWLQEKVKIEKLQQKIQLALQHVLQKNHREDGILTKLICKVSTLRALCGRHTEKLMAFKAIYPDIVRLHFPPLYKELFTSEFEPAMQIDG
- Protocol details: Inhibition of human RORalpha
pEC50: −log10 of the molar value.

Chemical structure	Tested on	pEC50
CC(=O)N1C[C@H](C(=O)Nc2ccc(C)cc2C)[C@@H](c2nnc([C@H]3C[C@@H](CC(C)C)C3)n2C2CC2)C1	Nuclear receptor ROR-alpha (Homo sapiens)	< 4.70
